# test_name: general population pharmacokinetic (PPK) model, all patients
# Type: in vivo, human
# condition_details: human, plasma, iv, general PPK model; all patients n = 299; mean ± SD (range)

molecule	clearance
CC[C@H](C)C[C@H](C)CCCCCCCCC(=O)N[C@H]1C[C@@H](O)[C@@H](NCCN)NC(=O)[C@@H]2[C@@H](O)CCN2C(=O)[C@H]([C@H](O)CCN)NC(=O)[C@H]([C@H](O)[C@@H](O)c2ccc(O)cc2)NC(=O)[C@@H]2C[C@@H](O)CN2C(=O)[C@H]([C@@H](C)O)NC1=O [caspofungin]	7 mL/min

====

# test_name: general population pharmacokinetic (PPK) model, all patients
# Assay type: in vivo, human
# Parameters: concentration or dose not given beside the values
# condition_details: human, plasma, iv, general PPK model; other patients; mean ± SD (range)

chem_smiles	AUC
CC[C@H](C)C[C@H](C)CCCCCCCCC(=O)N[C@H]1C[C@@H](O)[C@@H](NCCN)NC(=O)[C@@H]2[C@@H](O)CCN2C(=O)[C@H]([C@H](O)CCN)NC(=O)[C@H]([C@H](O)[C@@H](O)c2ccc(O)cc2)NC(=O)[C@@H]2C[C@@H](O)CN2C(=O)[C@H]([C@@H](C)O)NC1=O	120 µg·h/mL

====

# test_name: general population pharmacokinetic (PPK) model, all patients
# Format: in vivo, human
# condition_details: human, plasma, iv, general PPK model; hematopathy patients; mean ± SD (range)
metric: clearance (mL/min)

compound	unit_abbreviation	result_value
CC[C@H](C)C[C@H](C)CCCCCCCCC(=O)N[C@H]1C[C@@H](O)[C@@H](NCCN)NC(=O)[C@@H]2[C@@H](O)CCN2C(=O)[C@H]([C@H](O)CCN)NC(=O)[C@H]([C@H](O)[C@@H](O)c2ccc(O)cc2)NC(=O)[C@@H]2C[C@@H](O)CN2C(=O)[C@H]([C@@H](C)O)NC1=O [caspofungin]	mL/min	7.5

====

# test_name: general population pharmacokinetic (PPK) model, all patients
# Type: in vivo, human
# condition_details: human, plasma, iv, general PPK model; ICU patients of the teaching hospital; mean ± SD (range)
metric: AUC (µg·h/mL)

molecule	result_value
CC[C@H](C)C[C@H](C)CCCCCCCCC(=O)N[C@H]1C[C@@H](O)[C@@H](NCCN)NC(=O)[C@@H]2[C@@H](O)CCN2C(=O)[C@H]([C@H](O)CCN)NC(=O)[C@H]([C@H](O)[C@@H](O)c2ccc(O)cc2)NC(=O)[C@@H]2C[C@@H](O)CN2C(=O)[C@H]([C@@H](C)O)NC1=O [caspofungin]	101

====

# test_name: general population pharmacokinetic (PPK) model, all patients
# Assay type: in vivo, human
# condition_details: human, plasma, iv, general PPK model; ICU patients of the teaching hospital; mean ± SD (range)
metric: clearance (mL/min)

molecule	metric	result_value
CC[C@H](C)C[C@H](C)CCCCCCCCC(=O)N[C@H]1C[C@@H](O)[C@@H](NCCN)NC(=O)[C@@H]2[C@@H](O)CCN2C(=O)[C@H]([C@H](O)CCN)NC(=O)[C@H]([C@H](O)[C@@H](O)c2ccc(O)cc2)NC(=O)[C@@H]2C[C@@H](O)CN2C(=O)[C@H]([C@@H](C)O)NC1=O [caspofungin]	clearance	7.83

Data origin, for the record: paper PMC9669616
